Target: T1, C-terminal truncated RSV F protein, secreted from recombinant baculovirus-infected cells (respiratory syncytial virus (strain not …, UniProt P03420 26-526))
T1 construct: also called F antigen of RSV
T1 sequence (P03420 26-526): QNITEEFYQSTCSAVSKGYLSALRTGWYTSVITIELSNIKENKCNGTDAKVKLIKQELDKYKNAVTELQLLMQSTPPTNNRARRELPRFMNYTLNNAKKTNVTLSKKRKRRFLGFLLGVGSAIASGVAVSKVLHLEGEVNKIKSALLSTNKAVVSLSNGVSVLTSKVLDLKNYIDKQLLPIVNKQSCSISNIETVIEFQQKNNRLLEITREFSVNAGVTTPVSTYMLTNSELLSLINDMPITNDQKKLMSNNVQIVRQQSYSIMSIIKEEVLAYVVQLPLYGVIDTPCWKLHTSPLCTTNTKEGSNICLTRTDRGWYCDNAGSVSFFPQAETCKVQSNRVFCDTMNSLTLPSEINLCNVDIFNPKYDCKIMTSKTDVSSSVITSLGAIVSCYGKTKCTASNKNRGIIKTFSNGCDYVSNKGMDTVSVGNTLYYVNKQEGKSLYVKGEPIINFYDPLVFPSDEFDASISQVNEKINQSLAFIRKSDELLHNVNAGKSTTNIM
Test: SPR (BIAcore), F protein immobilized, Fab injected
Provide the reported koff of each item.
Numbers only, in s⁻¹.

Before answering, review these 2 worked examples.
Clone 13 (Fab) (Fab, V domains shown) VH: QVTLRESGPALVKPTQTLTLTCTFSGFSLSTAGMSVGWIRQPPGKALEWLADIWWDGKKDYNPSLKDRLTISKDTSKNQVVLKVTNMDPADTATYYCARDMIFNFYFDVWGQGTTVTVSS VL: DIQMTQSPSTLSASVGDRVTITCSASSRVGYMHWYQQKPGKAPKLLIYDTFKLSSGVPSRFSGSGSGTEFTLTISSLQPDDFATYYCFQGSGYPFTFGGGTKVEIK: 0.00023
Clone 5 (Fab) (Fab, V domains shown) VH: QVTLRESGPALVKPTQTLTLTCTFSGFSLSTAGMSVGWIRQPPGKALEWLADIWWDDKKDYNPSLKSRLTISKDTSKNQVVLKVTNMDPADTATYYCARDMITNFYFDVWGQGTTVTVSS VL: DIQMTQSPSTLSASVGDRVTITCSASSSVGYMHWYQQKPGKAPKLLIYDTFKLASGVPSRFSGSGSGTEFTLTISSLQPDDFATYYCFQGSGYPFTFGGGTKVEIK: 0.000306

Now consider the entry below.
Consider Clone 11 (Fab) (Fab, V domains shown) VH: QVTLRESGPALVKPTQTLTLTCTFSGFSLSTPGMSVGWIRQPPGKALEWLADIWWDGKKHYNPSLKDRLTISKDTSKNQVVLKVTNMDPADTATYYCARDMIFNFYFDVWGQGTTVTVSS VL: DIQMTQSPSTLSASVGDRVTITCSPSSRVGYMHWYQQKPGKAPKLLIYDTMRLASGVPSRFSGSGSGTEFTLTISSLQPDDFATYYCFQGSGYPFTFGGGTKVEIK . Its measured koff is 0.000717

Hello, the source for this data is patent US20020098189A1, in case you need it.
